Ref: patent US12319648B2

Test system: Echinochloa crus-galli (ECHCG)
Test: Pre-emergence herbicidal glasshouse test
Assay type: in vivo
Details: pre-emergence, 250 g/ha, 13 days after application
MEASUREMENT LABEL: percentage damage caused to the plant, five-point scale, ECHCG

Sample answers from the record:
O=C(O)C(F)(F)c1c(Cl)ccc(Cl)c1Cl [Compound 1.001] | 1 (1=0-20%)
Cc1c(Cl)cccc1C(F)(F)C(=O)O [Compound 1.058] | 3 (3=41-60%)
Cc1cccc(C(F)(F)C(=O)O)c1C(F)(F)F.N [Compound 1.062] | 1 (1=0-20%)

Field request: percentage damage caused to the plant, five-point scale, ECHCG | item: Cc1ccc(Cl)c(Cl)c1C(F)(F)C(=O)O.N [Compound 1.063]
1 (1=0-20%)

Lookup O=C(O)C(F)(F)c1cccc(Cl)c1Cl [Compound 1.034]
2 (2=21-40%)

Lookup O=C(O)C(F)(F)c1cccc(F)c1F [Compound 1.031]
1 (1=0-20%)

Lookup O=C(O)C(F)(F)c1cccc(F)c1Cl [Compound 1.036]
1 (1=0-20%)

Lookup O=C(O)C(F)(F)c1ccc(Cl)cc1Cl [Compound 1.004]
1 (1=0-20%)

Lookup O=C(O)C(F)(F)c1cccc(Cl)c1Cl [Compound 1.039]
1 (1=0-20%)

Lookup O=C(O)C(F)(F)c1ccccc1Cl [Compound 1.011]
1 (1=0-20%)

Lookup O=C(O)C(F)(F)c1c(Cl)cccc1Cl [Compound 1.044]
1 (1=0-20%)

Lookup O=C(O)C(F)(F)c1cccc(Cl)c1Cl [Compound 1.014]
5 (5=81-100%)

Lookup O=C(O)C(F)(F)c1cccc(Cl)c1C(F)(F)F [Compound 1.060]
1 (1=0-20%)

Lookup Cc1c(Cl)ccc(Cl)c1C(F)(F)C(=O)O.N [Compound 1.084]
1 (1=0-20%)

Lookup O=C(O)C(F)(F)c1cc(Cl)cc(Cl)c1 [Compound 1.007]
1 (1=0-20%)

Lookup Cc1cccc(C(F)(F)C(=O)O)c1F.N [Compound 1.061]
1 (1=0-20%)

###

Collected percentage damage caused to the plant, five-point scale, SETFA values appear next to each entry.
System: Setaria faberi (SETFA)
Assay: Post-emergence herbicidal glasshouse test
Format: in vivo
Details: post-emergence, 250 g/ha, 13 days after application
Description: Seeds of a variety of test species are shown in standard soil in pots Amaranthus retoflexus (AMARE), Ipomoea hederacea (IPOHE), Solanum nigrum (SOLNI), Lolium perenne (LOLPE). Echinochloa crus-galli (ECHCG), Setaria faberi (SETFA)). […] After 13 days for pre and post-emergence, the test is evaluated for the percentage damage caused to the plant. […]

Sample answers from the record:
O=C(O)C(F)(F)c1cccc(Br)c1F | 4 (4=61-80%)
O=C(O)C(F)(F)c1ccc(Cl)cc1Cl | 1 (1=0-20%)
O=C(O)C(F)(F)c1cccc(Cl)c1Cl [Compound 1.014] | 5 (5=81-100%)

Field request: percentage damage caused to the plant, five-point scale, SETFA | item: O=C(O)C(F)(F)c1cccc(Cl)c1Cl [Compound 1.039]
3 (3=41-60%)

Lookup `O=C(O)C(F)(F)c1cccc(F)c1Cl`
1 (1=0-20%)

Lookup `O=C(O)C(F)(F)c1cccc(Br)c1Cl`
4 (4=61-80%)

Lookup O=C(O)C(F)(F)c1cccc(Cl)c1Cl [Compound 1.040]
3 (3=41-60%)

Lookup `O=C(O)C(F)(F)c1cc(Cl)ccc1Cl`
1 (1=0-20%)

Lookup `O=C(O)C(F)(F)c1cccc(Cl)c1F`
3 (3=41-60%)
